- measurement-target: R878K mutated mAPA (Mus musculus, UniProt P16406, R878K)
- Construct: made in house; host or cells: stably transfected CHO-K1 cells
- Sequence (P16406 whole entry R878K): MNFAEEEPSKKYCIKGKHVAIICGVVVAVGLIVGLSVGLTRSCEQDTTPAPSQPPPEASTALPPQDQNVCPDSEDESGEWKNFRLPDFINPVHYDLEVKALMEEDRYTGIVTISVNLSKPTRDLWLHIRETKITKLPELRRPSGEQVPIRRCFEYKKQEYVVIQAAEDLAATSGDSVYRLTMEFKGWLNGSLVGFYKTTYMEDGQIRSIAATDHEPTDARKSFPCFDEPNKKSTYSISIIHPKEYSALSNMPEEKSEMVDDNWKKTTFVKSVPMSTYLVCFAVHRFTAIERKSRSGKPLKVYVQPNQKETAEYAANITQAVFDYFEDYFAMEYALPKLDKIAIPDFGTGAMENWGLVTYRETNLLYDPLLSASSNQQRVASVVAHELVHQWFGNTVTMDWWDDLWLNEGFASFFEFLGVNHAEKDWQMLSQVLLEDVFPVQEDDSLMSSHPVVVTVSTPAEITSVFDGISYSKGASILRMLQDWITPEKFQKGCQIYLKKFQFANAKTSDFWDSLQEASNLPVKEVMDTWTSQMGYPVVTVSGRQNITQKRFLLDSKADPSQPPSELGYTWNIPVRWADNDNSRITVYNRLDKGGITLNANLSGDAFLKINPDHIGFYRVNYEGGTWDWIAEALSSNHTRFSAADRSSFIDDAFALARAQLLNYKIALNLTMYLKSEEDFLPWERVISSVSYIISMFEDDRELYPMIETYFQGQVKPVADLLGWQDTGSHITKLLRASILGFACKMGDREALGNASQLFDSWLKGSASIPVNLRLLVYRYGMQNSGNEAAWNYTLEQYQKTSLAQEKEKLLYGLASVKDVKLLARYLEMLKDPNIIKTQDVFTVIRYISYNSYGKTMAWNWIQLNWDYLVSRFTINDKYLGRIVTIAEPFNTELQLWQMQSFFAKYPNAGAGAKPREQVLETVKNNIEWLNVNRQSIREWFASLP
- procedure-summary: Kinetic parameters of substrate hydrolysis by R878K His-mAPA
- Assay type: biochemical
- experimental-context: no Ca2+
Exercise: for every item that follows, state its recorded Km.
Express your answer in µM, writing the number without its unit.

Enquiry: Fill in the recorded Km for this molecule, with R878K mutated mAPA (Mus musculus, UniProt P16406, R878K) as test system: C[C@H](N)C(=O)Nc1ccc2ccccc2c1 [HAlaβNA, α-L-alanine-β-naphthylamide]
Return: 670

Enquiry: Fill in the recorded Km for this molecule, with R878K mutated mAPA (Mus musculus, UniProt P16406, R878K) as test system: NCCCC[C@H](N)C(=O)Nc1ccc2ccccc2c1 [HLysβNA, α-L-lysine-β-naphthylamide]
Return: 336

Enquiry: Fill in the recorded Km for this molecule, with R878K mutated mAPA (Mus musculus, UniProt P16406, R878K) as test system: N[C@@H](CCC(=O)O)C(=O)Nc1ccc2ccccc2c1 [HGluβNA, α-L-glutamyl-β-naphthylamide]
Return: 12500

Enquiry: Fill in the recorded Km for this molecule, with R878K mutated mAPA (Mus musculus, UniProt P16406, R878K) as test system: N[C@@H](CC(=O)O)C(=O)Nc1ccc2ccccc2c1 [HAspβNA, α-L-aspartate-β-naphthylamide]
Return: 3150

---

Exercise: for every item that follows, state its recorded Ki.
- measurement-target: wild-type mAPA (Mus musculus)
- Construct: made in house; host or cells: stably transfected CHO-K1 cells
- Sequence (P16406 whole entry): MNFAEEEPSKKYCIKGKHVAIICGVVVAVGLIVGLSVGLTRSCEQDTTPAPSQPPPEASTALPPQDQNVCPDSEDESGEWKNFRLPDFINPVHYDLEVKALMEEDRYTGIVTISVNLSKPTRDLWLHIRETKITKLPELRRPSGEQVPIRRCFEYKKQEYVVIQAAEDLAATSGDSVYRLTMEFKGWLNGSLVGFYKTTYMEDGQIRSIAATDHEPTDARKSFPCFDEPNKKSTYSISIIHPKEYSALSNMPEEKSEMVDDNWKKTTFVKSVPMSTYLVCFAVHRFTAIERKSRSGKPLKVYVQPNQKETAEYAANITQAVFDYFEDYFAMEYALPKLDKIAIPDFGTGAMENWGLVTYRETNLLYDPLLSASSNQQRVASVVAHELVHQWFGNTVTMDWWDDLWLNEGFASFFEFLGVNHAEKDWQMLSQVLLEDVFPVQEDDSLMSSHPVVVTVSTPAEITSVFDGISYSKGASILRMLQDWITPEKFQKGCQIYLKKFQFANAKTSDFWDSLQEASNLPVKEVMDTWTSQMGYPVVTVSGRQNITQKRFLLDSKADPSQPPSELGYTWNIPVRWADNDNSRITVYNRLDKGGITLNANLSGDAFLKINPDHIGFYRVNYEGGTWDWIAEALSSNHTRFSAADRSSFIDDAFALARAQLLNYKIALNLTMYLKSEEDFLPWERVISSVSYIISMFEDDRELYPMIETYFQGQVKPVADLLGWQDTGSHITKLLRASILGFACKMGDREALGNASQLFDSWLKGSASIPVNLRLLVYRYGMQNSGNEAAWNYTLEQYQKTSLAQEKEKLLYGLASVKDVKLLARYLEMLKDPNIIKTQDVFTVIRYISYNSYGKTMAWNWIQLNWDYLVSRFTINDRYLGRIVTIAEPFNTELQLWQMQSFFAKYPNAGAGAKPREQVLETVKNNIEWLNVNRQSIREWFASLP
- procedure-summary: Inhibition of GluNA hydrolysis by purified recombinant wild-type His-mAPA
- Format: biochemical
- experimental-context: wild-type mAPA; absence of calcium; 0.5 mM GluNA; read-out: Ki
- Experimental: Enzyme assays were carried out for wild-type and mutated His-mAPAs in 50 mM Tris-HCl buffer, pH 7.4, with or without 4 mM CaCl2, by monitoring the rate of hydrolysis of GluNA, as previously described. […] The kinetic curves were monitored by following the increase in fluorescence at 460 nm (lex = 330 nm), induced by the release of the β-naphthylamide fluorogenic part of the substrate by APA. […]
Express your answer in nM, writing the number without its unit.

Enquiry: Fill in the recorded Ki for this compound, with wild-type mAPA (Mus musculus) as test system: `CSCC[C@H](N)CS`
Return: 750

Enquiry: Fill in the recorded Ki for this compound, with wild-type mAPA (Mus musculus) as test system: `N[C@H](CS)CCC(=O)O`
Return: 1570

Enquiry: Fill in the recorded Ki for this compound, with wild-type mAPA (Mus musculus) as test system: `NCCCC[C@H](N)CS`
Return: 317

Attribution: paper PMC5587309
